// Plant response rating, Johnsongrass lookup, one value per entry
system: johnsongrass (Sorghum halepense); assay: Test B pre-/postemergence plant response; type: in vivo; details: 250 g ai/ha, Preemergence, 0 to 100 scale
When you answer, write just the number.

The following molecules have reported results that may help.
Cc1cc(-n2c(-c3ccccc3)ncc(C(=O)C3=C(O)CCCC3=O)c2=O)ccc1F	75
Cc1ccc(F)cc1-n1c(-c2ccccc2)ncc(C(=O)C2=C(O)CCCC2=O)c1=O	95
Cc1ccccc1-n1c(-c2ccccc2)ncc(C(=O)C2=C(O)CCCC2=O)c1=O	98
CCCCc1ncc(C(=O)C2=C(O)CCCC2=O)c(=O)n1-c1ccc(C)cc1	0
Cc1ccccc1-n1c(-c2cccc(Cl)c2)ncc(C(=O)C2=C(O)CCCC2=O)c1=O	85
CCCCc1ncc(C(=O)C2=C(O)CCCC2=O)c(=O)n1-c1ccccc1	65

Now consider a different molecule.
I have this molecule here, Cn1c(-c2ccccc2)ncc(C(=O)C2=C(O)CCCC2=O)c1=O , and I need its recorded Plant response rating, Johnsongrass.
0

---

The following compounds are shown together with reported Plant response rating, Bermudagrass values.
system: bermudagrass (Cynodon dactylon); assay: Test B pre-/postemergence plant response; assay type: in vivo; details: Postemergence, 250 g ai/ha; scale 0 to 100 (0 no effect, 100 complete control)
The reply should be a number, written without any unit.

# annotated cases, reported Plant response rating, Bermudagrass shown
Cc1ccccc1-c1ncc(C(=O)C2=C(O)CCCC2=O)c(=O)n1-c1ccccc1	95
Cc1cc(-n2c(-c3ccccc3)ncc(C(=O)C3=C(O)CCCC3=O)c2=O)ccc1F	98
CCCCn1c(-c2cc(F)cc(F)c2)ncc(C(=O)C2=C(O)CCCC2=O)c1=O	100
CC(C)n1c(-c2ccccc2)ncc(C(=O)C2=C(O)CCCC2=O)c1=O	90

Next compound, please.
What value of Plant response rating, Bermudagrass has been recorded for this entry: COCC(C)n1c(-c2ccccc2)ncc(C(=O)C2=C(O)CCCC2=O)c1=O (centres unmarked)
98

---

test system: cocklebur (Xanthium strumarium); experiment: Test B pre-/postemergence plant response; assay type: in vivo; details: Preemergence, 62 g ai/ha; scale 0 to 100 (0 no effect, 100 complete control)
Reported values of Plant response rating, Cocklebur for individual entries
The answer should be a number; do not append a unit.

Sample answers from the record:
COCCCn1c(-c2cc(F)cc(F)c2)ncc(C(=O)C2=C(O)CCCC2=O)c1=O	35
CCCCc1ncc(C(=O)C2=C(O)CCCC2=O)c(=O)n1-c1ccccc1	0
O=C1CCCC(O)=C1C(=O)c1cnc(-c2ccsc2)n(-c2ccccc2)c1=O	0
O=C1CCCC(O)=C1C(=O)c1cnc(-c2ccccc2)n(CC2CCCO2)c1=O (stereo not drawn)	0
O=C1CCCC(O)=C1C(=O)c1cnc(-c2cccc(Cl)c2)n(-c2ccc(Cl)cc2)c1=O	0

State the recorded Plant response rating, Cocklebur for this entry: COc1ccc(-n2c(-c3ccccc3)ncc(C(=O)C3=C(O)CCCC3=O)c2=O)cc1OC
0

Fill in the blank: the reported Plant response rating, Cocklebur of CCCCc1ncc(C(=O)C2=C(O)CCCC2=O)c(=O)n1-c1cccc(C)c1 is ____.
0

For the compound Cc1cc(C)cc(-n2c(-c3ccccc3)ncc(C(=O)C3=C(O)CCCC3=O)c2=O)c1 , what Plant response rating, Cocklebur is on record?
80

Which measured Plant response rating, Cocklebur value corresponds to CCc1ccc(-n2c(-c3ccccc3)ncc(C(=O)C3=C(O)CCCC3=O)c2=O)cc1 ?
75

---

tested on: Italian ryegrass (Lolium multiflorum); assay: Test B pre-/postemergence plant response; assay type: in vivo; conditions: Postemergence, 62 g ai/ha; scale 0 (no effect) to 100 (complete control); 13 to 15 days
Parameter: Plant response rating, Ryegrass, Italian
A bare number is all that is needed in reply.

Which measured Plant response rating, Ryegrass, Italian value corresponds to Cc1ccc(-n2c(-c3ccccc3)ncc(C(=O)C3=C(O)CCCC3=O)c2=O)cc1 [Compound 8] ?
20

Can you look up the measured Plant response rating, Ryegrass, Italian of Cc1ccc(F)cc1-n1c(-c2ccccc2)ncc(C(=O)C2=C(O)CCCC2=O)c1=O [Compound 44] for me?
5

---

test system: soybean (Glycine max); assay: Test B pre-/postemergence plant response; assay type: in vivo; conditions: Postemergence, 250 g ai/ha; scale 0 to 100 (0 no effect, 100 complete control)
The following compounds are listed with their measured Plant response rating, Soybean values.
Give a plain numeric answer without units written out.

Please review the entries below; each comes with its answer.
CCCCc1ncc(C(=O)C2=C(O)CCCC2=O)c(=O)n1-c1cccc(C)c1 [Compound 63]	85
CCCCc1ncc(C(=O)C2=C(O)CCCC2=O)c(=O)n1-c1ccc(C)cc1 [Compound 67]	98
COCC(C)n1c(-c2ccccc2)ncc(C(=O)C2=C(O)CCCC2=O)c1=O (stereo not shown) [Compound 107]	100

What Plant response rating, Soybean appears in the records for this compound with soybean (Glycine max)? O=C1CCCC(O)=C1C(=O)c1cnc(-c2ccccc2)n(CC2CCCO2)c1=O (stereo not shown) [Compound 59]
95

---

tested on: lambsquarters (Chenopodium album); test: Test B pre-/postemergence plant response; assay type: in vivo; details: Preemergence, 31 g ai/ha; scale 0 to 100 (0 no effect, 100 complete control)
Parameter: Plant response rating, Lambsquarters
# output: bare number, no unit

Field request: Plant response rating, Lambsquarters | item: O=C1CCCC(O)=C1C(=O)c1cnc(-c2ccccc2)n(CC2CCCO2)c1=O (centres unmarked)
98

Please look up its Plant response rating, Lambsquarters: O=C1CCCC(O)=C1C(=O)c1cnc(-c2cccc(Cl)c2)n(-c2ccc(Cl)cc2)c1=O
95

Query (compound): COCCn1c(-c2cc(F)cc(F)c2)ncc(C(=O)C2=C(O)CCCC2=O)c1=O ; field requested: Plant response rating, Lambsquarters
95

Look up Plant response rating, Lambsquarters: O=C1CCCC(O)=C1C(=O)c1cnc(-c2ccccc2)n(-c2ccccc2F)c1=O
98

Recorded Plant response rating, Lambsquarters of CCCc1ncc(C(=O)C2=C(O)CCCC2=O)c(=O)n1CC1CCCO1 (centres unmarked) , please.
98

---

tested on: blackgrass (Alopecurus myosuroides); test: Test B pre-/postemergence plant response; type: in vivo; conditions: Preemergence, 125 g ai/ha; scale 0 to 100, 0 no effect, 100 complete control
Overview of recorded Plant response rating, Blackgrass for various compounds
Lab note: jot down the number only; don't add units.

A selection of reference data follows.
COc1ccc(-n2c(-c3ccccc3)ncc(C(=O)C3=C(O)CCCC3=O)c2=O)cc1OC	0
O=C1CCCC(O)=C1C(=O)c1cnc(-c2ccsc2)n(-c2ccccc2)c1=O	0
O=C1CCCC(O)=C1C(=O)c1cnc(-c2cccc(Cl)c2)n(-c2ccc(Cl)cc2)c1=O	0
CCCCc1ncc(C(=O)C2=C(O)CCCC2=O)c(=O)n1-c1ccc(C)cc1	0
CCCCn1c(-c2cc(F)cc(F)c2)ncc(C(=O)C2=C(O)C3CCC(C3)C2=O)c1=O (stereo not shown)	30

Report Plant response rating, Blackgrass for Cc1cc(-n2c(-c3ccccc3)ncc(C(=O)C3=C(O)CCCC3=O)c2=O)ccc1F please.
5

Plant response rating, Blackgrass lookup needed for CCCn1c(-c2cccs2)ncc(C(=O)C2=C(O)CCCC2=O)c1=O , thanks.
0

---

tested on: large crabgrass (Digitaria sanguinalis); assay: Test A pre-/postemergence plant response; assay type: in vivo; conditions: Postemergence, 500 g ai/ha; 0 to 100 scale, 0 = no effect, 100 = complete control; approx. ten days
Plant response rating, Crabgrass, Large strictly under 80 means T; at 80 or over means F.

Past entries and their recorded results:
Cc1cccc(Cl)c1-n1c(-c2ccccc2)ncc(C(=O)C2=C(O)CCCC2=O)c1=O	F
Cn1c(-c2ccccc2)ncc(C(=O)C2=C(O)CCCC2=O)c1=O	F
COCCn1c(-c2ccccc2)ncc(C(=O)C2=C(O)CCCC2=O)c1=O	F
CCCCCn1c(-c2ccccc2)ncc(C(=O)C2=C(O)CCCC2=O)c1=O	F
CCCCCCc1ncc(C(=O)C2=C(O)CCCC2=O)c(=O)n1-c1ccccc1	T

Report whether reported Plant response rating, Crabgrass, Large is lower than 80 (strictly) for Cc1cc(C)cc(-n2c(-c3ccccc3)ncc(C(=O)C3=C(O)CCCC3=O)c2=O)c1
F

---

tested on: giant foxtail (Setaria faberii); test: Test B pre-/postemergence plant response; type: in vivo; details: 62 g ai/ha, postemergence; 0 is no effect, 100 is complete control; 13 to 15 days
Cut-off 80 on Foxtail, Giant plant response rating (0 to 100 scale): below means 1, at or above means 0.

See these solved cases before continuing.
CC(C)n1c(-c2ccccc2)ncc(C(=O)C2=C(O)CCCC2=O)c1=O	1
O=C1CCCC(O)=C1C(=O)c1cnc(-c2ccccc2Br)n(-c2ccccc2)c1=O	1
CCCc1ncc(C(=O)C2=C(O)CCCC2=O)c(=O)n1CC1CCCO1 (stereo not shown)	1
CCCn1c(-c2cc(F)cc(F)c2)ncc(C(=O)C2=C(O)CCCC2=O)c1=O	0
COCCn1c(-c2cccc(C)c2)ncc(C(=O)C2=C(O)CCCC2=O)c1=O	1

Continue with the next compound.
Quick check: does O=C1CCCC(O)=C1C(=O)c1cnc(-c2ccccc2)n(C2CCCC2)c1=O have Foxtail, Giant plant response rating (0 to 100 scale) under 80?
1
